Quick list: z-score per entry.
assay: E. coli growth modulation, two-sided OD650, primary screen, E. coli filamentation project, strain DRC41, 24 h (AID 1093);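 note: MC1000 strain lacking acrAB efflux and sulA so SOS filamentation is blocked; test concentration not given here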
stated.conditions: OD650, 24 h, higher = more signal, called active from +8 up or from −8 down
Could you respond with only the numeric value?

Known results for compounds:
>>> observed_value("O=C(NN=C1C[C@@H](O)[C@@H](O)[C@@H]2[C@@H]3C(=O)N(c4ccc(F)cc4F)C(=O)[C@@H]3CC[C@H]12)OCc1ccccc1")
0.782
>>> observed_value("CCN1C(=O)[C@H]2[C@H]3[C@H](O)[C@H](O)CC(=NOC(C)CN4CCCc5nc(C)c(C)cc54)[C@@H]3CC[C@H]2C1=O (some centres undefined)")
1.32
>>> observed_value("COC(=O)CC=C[C@@H](C)[C@@H](C=NOC[C@@H](C)[C@H](OCc1ccccc1)C(C)C)NS(=O)(=O)c1ccc(C)cc1")
-1.42
>>> observed_value("CO[C@H]1COC(=O)CCC[C@H](C)[C@H](OC)COC(=O)CC=C[C@@H]1C")
-0.0243
>>> observed_value("CCOC(=O)[C@H](CC(C)C)NC(=O)CCC1CC(OC(=O)NCc2ccc3c(c2)OCO3)CC2(CCCC(COC(=O)NCCc3ccccc3OC)O2)O1 (some centres undefined)")
-0.133
>>> observed_value("CCOC(=O)[C@H](Cc1ccccc1)NC(=O)CCC1CC(OC(=O)NCc2cccc3ccccc23)CC2(CCCC(COC(=O)NCCOc3ccccc3)O2)O1 (some centres undefined)")
-0.325
>>> observed_value("CCOC(=O)[C@H](Cc1ccccc1)NC(=O)CCC1CC(OC(=O)NCc2cccc3ccccc23)CC2(CCCC(COC(=O)NCCc3ccc(Cl)cc3)O2)O1 (some centres undefined)")
-0.159
>>> observed_value("C#CCCCON=C1[C@H]2CCn3c(=O)n([C@@H](CC)c4ccccc4)c(=O)n3[C@H]2[C@H](O)[C@@H]2O[C@H]12")
-0.647
>>> observed_value("CCC1=NOC(CCC2CC(OC(=O)NCc3cccc4c3OCO4)CC3(CCCC(COC(=O)NCCc4ccc(Cl)cc4)O3)O2)C1 (centres undefined)")
0.812
>>> observed_value("C#CCCCON=C1C[C@@H](O)[C@@H](O)[C@@H]2[C@@H]3C(=O)N([C@@H](C)c4ccccc4)C(=O)[C@@H]3CC[C@@H]12")
0.761

Query: What does the record list as z-score for O=C1C=C[C@@H](O)[C@@H]2[C@@H]3C(=O)N(c4cccc(Oc5ccccc5)c4)C(=O)[C@@H]3CC[C@@H]12 ?
Result: 0.533

Query: May I ask what z-score has been recorded for CCCNC(=O)OC[C@H]1O[C@H](CCON=C2C[C@@H](O)[C@@H](O)[C@@H]3[C@@H]4C(=O)N(CC)C(=O)[C@@H]4CC[C@@H]23)C=C[C@@H]1Oc1ccc(OC)cc1 ?
Result: 0.536
